- SYSTEM: human mGluR2 receptor (Homo sapiens)
- Construct: expressed in transfected cells; host or cells: CHO cells (membrane preparation)
- ASSAY DETAILS: [35S]GTPγS binding assay (GTPγS-PAM): positive allosteric modulation in presence of glutamate at EC25, membranes from transfected CHO cells
- Format: biochemical
- RECORDED CONDITIONS: in presence of mGluR2 agonist glutamate at predetermined EC25 concentration, averages of duplicate values of 11-concentration response curves, read-out: GTPgS - hR2 PAM pEC50 (converted)
Recorded EC50 values for a group of compounds are listed next.

# COMPOUND, EC50, nM
records = [
    ("CC(C)CCn1ccc(-c2ccc(NCC#N)cc2)c(C#N)c1=O", 794),
    ("CC(C)CCn1ccc(-c2ccc(N3Cc4ccccc4C3)cc2)c(C#N)c1=O", 398),
    ("CC(C)CCn1ccc(-c2ccc(OCc3cccc(F)c3)cc2)c(C#N)c1=O", 63.1),
    ("CN(Cc1ccccc1)C1CCN(c2ccn(Cc3ccc(OC(F)(F)F)cc3)c(=O)c2C#N)CC1", 200),
    ("CC(C)CCn1ccc(-c2cccs2)c(C#N)c1=O", 2000),
    ("N#Cc1c(N2CCN(c3ncccc3C(F)(F)F)CC2)ccn(Cc2ccc(OC(F)(F)F)cc2)c1=O", 79.4),
    ("CCCCn1ccc(-c2ccc3c(cnn3Cc3ccccn3)c2)c(C#N)c1=O", 794),
    ("N#Cc1c(-c2ccc(CN3CCCCC3)cc2)ccn(Cc2ccc(OC(F)(F)F)cc2)c1=O", 2510),
    ("CC(C)CCn1ccc(N2CCC(N(C)Cc3cccc(F)c3)C2)c(C#N)c1=O (stereo not drawn)", 3980),
]

----------
Define the label as criterion met when melting point is strictly less than 100 °C and as criterion not met in all remaining cases.

# CHEMICAL STRUCTURE, GROUP
measured = [
    ("N#Cc1c(N2CCN(CC(=O)c3ccccc3)CC2)ccn(Cc2ccc(OC(F)(F)F)cc2)c1=O", "criterion met"),
    ("CC(C)CCn1ccc(-c2ccc(Oc3ccncc3)cc2)c(C#N)c1=O", "criterion not met"),
    ("N#Cc1c(-c2ccccc2)ccn(CC2CCCCC2)c1=O", "criterion not met"),
    ("CC(C)CCn1ccc(-c2ccc(-n3ccnc3)cc2)c(C#N)c1=O", "criterion not met"),
    ("CC(C)CCn1ccc(N2CCc3c([nH]c4ccccc34)C2)c(C#N)c1=O", "criterion not met"),
]

----------
- SYSTEM: human mGluR2 receptor (Homo sapiens, UniProt Q14416)
- Construct: expressed in transfected cells; host or cells: CHO cells (membrane preparation)
- Sequence (Q14416 19-872): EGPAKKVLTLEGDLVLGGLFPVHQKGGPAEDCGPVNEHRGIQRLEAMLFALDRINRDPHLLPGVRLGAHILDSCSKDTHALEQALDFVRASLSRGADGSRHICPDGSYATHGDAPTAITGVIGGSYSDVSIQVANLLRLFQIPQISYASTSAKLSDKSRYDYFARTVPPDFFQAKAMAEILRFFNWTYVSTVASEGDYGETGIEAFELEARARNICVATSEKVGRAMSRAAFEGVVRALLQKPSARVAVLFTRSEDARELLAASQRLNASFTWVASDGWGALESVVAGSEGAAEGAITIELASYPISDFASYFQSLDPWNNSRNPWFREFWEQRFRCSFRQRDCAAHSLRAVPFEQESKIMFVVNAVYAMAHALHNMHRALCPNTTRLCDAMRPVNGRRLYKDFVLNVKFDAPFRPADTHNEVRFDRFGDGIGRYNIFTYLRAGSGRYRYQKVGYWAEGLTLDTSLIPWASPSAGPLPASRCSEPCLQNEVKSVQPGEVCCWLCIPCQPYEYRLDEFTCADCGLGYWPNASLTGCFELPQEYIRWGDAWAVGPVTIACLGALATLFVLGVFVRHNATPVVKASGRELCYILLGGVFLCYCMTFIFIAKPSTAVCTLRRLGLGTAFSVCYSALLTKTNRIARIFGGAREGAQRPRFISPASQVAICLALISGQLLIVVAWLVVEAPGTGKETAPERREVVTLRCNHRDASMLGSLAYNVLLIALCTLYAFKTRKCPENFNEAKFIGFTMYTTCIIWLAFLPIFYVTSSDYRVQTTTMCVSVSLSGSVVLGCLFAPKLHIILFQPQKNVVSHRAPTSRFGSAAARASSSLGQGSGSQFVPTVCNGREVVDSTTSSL
- ASSAY DETAILS: [35S]GTPγS binding assay (GTPγS-PAM): positive allosteric modulation in presence of glutamate at EC25, membranes from transfected CHO cells
- Type: biochemical
- RECORDED CONDITIONS: in presence of mGluR2 agonist glutamate at predetermined EC25 concentration, averages of duplicate values of 11-concentration response curves, read-out: GTPgS - hR2 PAM pEC50 (converted)
Recorded EC50 values for a group of molecules are listed next.
ENDPOINT NAME: EC50 (nM)

# MOLECULE, UNITS TEXT, REPORTED VALUE
rows = [
    ("N#Cc1c(N2CCC(O)(c3cccnc3)CC2)ccn(Cc2ccc(OC(F)(F)F)cc2)c1=O [4-063]", "nM", 5010),
    ("CC(C)CCn1ccc(-c2ccc(NCc3ccc(F)cc3)cc2)c(C#N)c1=O [1-200]", "nM", 79.4),
    ("CC(C)CCn1ccc(Oc2ccccc2)c(C#N)c1=O [1-274]", "nM", 1580),
    ("CC(C)CCn1ccc(-c2ccc(OCCOC3CCCCO3)cc2)c(C#N)c1=O (centres unmarked) [1-137]", "nM", 1000),
    ("CC(C)CCn1ccc(N(C)C2CCN(Cc3cccc(C(F)(F)F)c3)CC2)c(C#N)c1=O [3-006]", "nM", 2510),
    ("N#Cc1c(-c2ccccc2)ccn(Cc2cccc(OC(F)(F)F)c2)c1=O [1-030]", "nM", 316),
    ("CC(C)CCn1ccc(N2CCN(Cc3ccc(F)c(F)c3)CC2)c(C#N)c1=O [2-015]", "nM", 1260),
    ("CN(C)c1ccc(-c2ccn(CC3CCCCC3)c(=O)c2C#N)cc1 [1-010]", "nM", 100),
    ("CCCCn1ccc(-c2ccc(Oc3ncccc3C#N)cc2)c(C#N)c1=O [1-071]", "nM", 631),
    ("N#Cc1c(N2CCN(CCc3ccccc3)CC2)ccn(Cc2ccc(OC(F)(F)F)cc2)c1=O [2-043]", "nM", 251),
    ("CC(C)CCn1ccc(N2CCN(CCOc3ccc(F)cc3)CC2)c(C#N)c1=O [2-019]", "nM", 6310),
    ("COc1ccccc1N1CCCN(c2ccn(CCC(C)C)c(=O)c2C#N)CC1 [5-044]", "nM", 1000),
    ("CC(C)CCn1ccc(N2CCN(c3ncccn3)CC2)c(C#N)c1=O [2-028]", "nM", 794),
    ("CC(C)CCn1ccc(-c2cccc(-c3ccccc3)c2)c(C#N)c1=O [1-094]", "nM", 501),
    ("CC(C)CCn1ccc(-c2ccc(CSc3ccncc3)cc2)c(C#N)c1=O [1-258]", "nM", 316),
    ("CC(C)CCn1ccc(OCc2cccc(OC(F)(F)F)c2)c(C#N)c1=O [1-279]", "nM", 398),
    ("CC(C)CCn1ccc(Nc2ccc(N3CCOCC3)cc2)c(C#N)c1=O [1-300]", "nM", 2000),
    ("CC(C)CCn1ccc(-c2ccc3[nH]ccc3c2)c(C#N)c1=O [5-016]", "nM", 251),
    ("CC(C)CCn1ccc(-c2ccc(N3CC(C)OC(C)C3)cc2)c(C#N)c1=O (centres unmarked) [1-227]", "nM", 501),
    ("CC(C)CCn1ccc(-c2ccc(OCc3ccc(F)cc3)cc2)c(C#N)c1=O [1-147]", "nM", 79.4),
    ("CC(C)CCn1ccc(N2CCC(OCc3ccc(OC(F)(F)F)cc3)CC2)c(C#N)c1=O [4-022]", "nM", 50.1),
    ("CC(C)CCn1ccc(N2CCC(Nc3ccccc3)C(C)C2)c(C#N)c1=O (centres unmarked) [4-043]", "nM", 501),
    ("N#Cc1c(-c2ccc(OCCCN3CCOCC3)cc2)ccn(Cc2ccc(OC(F)(F)F)cc2)c1=O [1-038]", "nM", 794),
    ("Cc1ccc(C2(O)CCN(c3ccn(Cc4ccc(OC(F)(F)F)cc4)c(=O)c3C#N)CC2)cn1 [4-053]", "nM", 3160),
    ("COc1cccc(CCc2ccn(CCC(C)C)c(=O)c2C#N)c1 [1-264]", "nM", 1580),
    ("CC(C)CCn1ccc(N2CCC3(CCN(c4ncccn4)CC3)CC2)c(C#N)c1=O [5-034]", "nM", 398),
    ("CCCCn1ccc(N2CCC(c3cccnc3)CC2)c(C#N)c1=O [4-002]", "nM", 3980),
    ("COc1ccc(-c2ccn(Cc3ccc(C(F)(F)F)cc3)c(=O)c2C#N)cc1 [1-024]", "nM", 126),
    ("CC(C)CCn1ccc(-c2ccc3c(c2)CCO3)c(C#N)c1=O [1-251]", "nM", 1260),
    ("CC(C)CCn1ccc(N2CCCC(c3ccccc3)C2)c(C#N)c1=O (centres unmarked) [4-013]", "nM", 2000),
    ("CC(C)CCn1ccc(-c2ccc(OCc3ccccn3)cc2)c(C#N)c1=O [1-157]", "nM", 398),
    ("CC(C)CCn1ccc(OCC2CCN(Cc3cccc(C(F)(F)F)c3)CC2)c(C#N)c1=O [3-009]", "nM", 158),
]

----------
- SYSTEM: human mGluR2 receptor (Homo sapiens, UniProt Q14416)
- Construct: expressed in transfected cells; host or cells: CHO cells (membrane preparation)
- ASSAY DETAILS: [35S]GTPγS binding assay (GTPγS-PAM): positive allosteric modulation in presence of glutamate at EC25, membranes from transfected CHO cells
- Type: biochemical
- RECORDED CONDITIONS: in presence of mGluR2 agonist glutamate at predetermined EC25 concentration, averages of duplicate values of 11-concentration response curves, read-out: GTPgS - hR2 PAM pEC50 (converted)
Recorded log10(EC50) values for a group of compounds are listed next.
ENDPOINT NAME: log10(EC50) (log10 of the value in nM)

# COMPOUND, SYSTEM, log10(EC50)
records = [
    ("CC(C)CCn1ccc(-c2ccc(OC(F)F)cc2)c(C#N)c1=O [1-119]", "human mGluR2 receptor (Homo sapiens, UniProt Q14416)", 2.80),
    ("CCCCn1ccc(N[C@H]2CC[C@H](c3ccccc3)CC2)c(C#N)c1=O [1-297]", "human mGluR2 receptor (Homo sapiens, UniProt Q14416)", 2.30),
    ("CC(C)CCn1ccc(-c2ccc(OC3CCCC3)cc2)c(C#N)c1=O [1-135]", "human mGluR2 receptor (Homo sapiens, UniProt Q14416)", 3.00),
    ("CC(C)CCn1ccc(-c2ccc(O)cc2)c(C#N)c1=O [1-097]", "human mGluR2 receptor (Homo sapiens, UniProt Q14416)", 3.20),
    ("CC(C)CCn1ccc(N2CCC(OCc3cccc(C(F)(F)F)c3)CC2)c(C#N)c1=O [4-020]", "human mGluR2 receptor (Homo sapiens, UniProt Q14416)", 2.10),
    ("COc1ccc(-c2ccn(CCC(C)C)c(=O)c2C#N)cc1F [1-114]", "human mGluR2 receptor (Homo sapiens, UniProt Q14416)", 3.00),
    ("CC(C)CCn1ccc(OCc2ccc(C(F)(F)F)cc2)c(C#N)c1=O [1-277]", "human mGluR2 receptor (Homo sapiens, UniProt Q14416)", 2.40),
    ("CCOC(=O)c1ccc(-c2cccc(COc3ccn(CCC(C)C)c(=O)c3C#N)c2)cc1 [1-290]", "human mGluR2 receptor (Homo sapiens, UniProt Q14416)", 2.20),
    ("CC(C)CCn1ccc(-c2ccc(Cn3ccnc3)cc2)c(C#N)c1=O [1-248]", "human mGluR2 receptor (Homo sapiens, UniProt Q14416)", 3.50),
    ("CCCCn1ccc(-c2ccc(Oc3cccc(C(F)(F)F)n3)cc2)c(C#N)c1=O [1-068]", "human mGluR2 receptor (Homo sapiens, UniProt Q14416)", 2.40),
]
